target.desc: PfPK6 (Plasmodium falciparum, UniProt Q8IDW1)
measurement.notes: KinaseSeeker split-luciferase assay on PfPK6
Type: binding, P. falciparum
experimental.parameters: read-out: PfPK6 activity remaining at 1 μM (%)
Would you kindly list remaining activity at 1 µM for each of these compounds?
Supply the numeric figure in %, leaving out any unit text.

Dear colleague, I am looking for the recorded remaining activity at 1 µM of the following compound: COc1cc2nccc(Oc3ccc(NC(=O)Nc4ccc(OC5CCN(C)CC5)c(C(F)(F)F)c4)c(F)c3)c2cc1OC
0

Can you handle COc1ccc(NC(=O)Nc2ccc(F)cc2F)c(F)c1 next?
100

Can you handle O=C(Nc1ccc(F)cc1F)Nc1ccc(Oc2cnnc3ccccc23)cc1F next?
100

Can you handle COc1cc2nccc(Oc3ccc(NC(=O)Nc4ccc(CC5CCNCC5)cc4)c(F)c3)c2cc1OC next?
2

Can you handle COc1cc2nccc(Oc3ccc(NC(=O)Nc4ccc(CC5CCNCC5)c(C(F)(F)F)c4)c(F)c3)c2cc1OC next?
1

Can you handle COc1cc2nccc(Oc3ccc(N)c(F)c3)c2cc1OC next?
100

Can you handle COc1cc2nccc(Oc3ccc(NC(=O)Nc4ccc(C=C5CCNCC5)cc4)c(F)c3)c2cc1OC next?
1

Can you handle O=C(Nc1ccc(O)cc1F)Nc1ccc(F)cc1F next?
100

---

target.desc: PfNEK3 (Plasmodium falciparum)
Sequence (Q8I629 1-347): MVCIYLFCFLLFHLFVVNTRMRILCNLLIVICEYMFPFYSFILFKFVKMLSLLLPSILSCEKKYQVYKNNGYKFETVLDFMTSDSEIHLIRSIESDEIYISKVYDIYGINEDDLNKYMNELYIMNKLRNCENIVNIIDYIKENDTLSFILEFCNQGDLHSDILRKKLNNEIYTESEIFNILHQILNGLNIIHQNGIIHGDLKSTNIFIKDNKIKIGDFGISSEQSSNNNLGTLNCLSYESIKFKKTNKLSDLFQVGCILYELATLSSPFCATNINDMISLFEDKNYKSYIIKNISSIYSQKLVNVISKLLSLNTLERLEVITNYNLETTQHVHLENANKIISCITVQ
pIC50: −log10 of the molar value.
measured.parameter: pIC50

Dear colleague, I am looking for the recorded pIC50 of the following compound: COc1cc2nccc(Oc3ccc(NC(=O)Nc4ccc(CN5CCN(C)CC5)c(C(F)(F)F)c4)c(F)c3)c2cc1OC
6.84 to 7.40

---

target.desc: PfPK6 (Plasmodium falciparum)
measurement.notes: KinaseSeeker split-luciferase assay on PfPK6
Format: binding, P. falciparum
experimental.parameters: KinaseSeeker, 1 μM
measured.parameter: activity against PfPK6 in words

COc1ccc(NC(=O)Nc2ccc(F)cc2F)c(F)c1 : completely inactive
O=C(Nc1ccc(O)cc1F)Nc1ccc(F)cc1F : completely inactive

---

target.desc: PfPKB (Plasmodium falciparum, UniProt Q8I4W3)
measured.parameter: IC50

Dear colleague, I am looking for the recorded IC50 of the following compound: COc1cc2nccc(Oc3ccc(NC(=O)Nc4ccc(CN5CCN(C)CC5)c(C(F)(F)F)c4)c(F)c3)c2cc1OC
40 to 144 nM

---

target.desc: PfGSK3 (Plasmodium falciparum, UniProt O77344)
measured.parameter: IC50

Dear colleague, I am looking for the recorded IC50 of the following compound: COc1cc2nccc(Oc3ccc(NC(=O)Nc4ccc(CN5CCN(C)CC5)c(C(F)(F)F)c4)c(F)c3)c2cc1OC
40 to 144 nM
